Values were extracted from PubChem BioAssay AID1159580.

Recorded normalized growth, one value per entry.
test: chemical genetic growth profiling, strain panel (AID 1159580);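 note: tested at 20 µM; growth read once vehicle control cultures reached saturation at 30 °C; 1 = growth at the plate median or of vehicle wells; lower values mean less growth of the strain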; details: S. cerevisiae deletion strains, growth OD, locus YDR392W, strain spt3, active compounds read low
Out of some 5,500 compounds screened, about 2,000 (36%) were called active. Inconclusive results (about 18%) are left out. This is one part of the list.
Lab note: record the figure alone, no unit after it.

Examples from the recorded data:
| compound | normalized growth |
| --- | --- |
| CC(C)c1cccc(C(C)C)c1O | 0.869 |
| CSc1nc(NC(C)C)nc(NC(C)C)n1 | 0.958 |
| NC[C@@H]1O[C@H](O[C@@H]2[C@@H](CO)OC(O[C@@H]3[C@@H](O)[C@H](N)C[C@H](N)[C@H]3O[C@H]3O[C@H](CO)[C@@H](O)[C@H](O)[C@H]3N)[C@@H]2O)[C@H](N)[C@@H](O)[C@@H]1O (some centres undefined) | 0.974 |
| Cc1ccc(-c2nc3ccc(C)cn3c2CC(=O)N(C)C)cc1 | 0.939 |
| CC[C@@]1(O)C(=O)OCc2c1cc1n(c2=O)Cc2cc3ccccc3nc2-1 | 0.284 |
| CC1=CC(=O)C2C(C)(C)CCC[C@]2(C)[C@@]1(O)CCc1ccoc1 (some centres undefined) | 0.628 |
| COc1nc(NC(C)C)nc(NC(C)C)n1 | 1.01 |
| COP(N)(=O)SC (centres undefined) | 1.01 |

So what's the measured normalized growth for this one? CNC[C@H](O)c1cccc(O)c1
1

Record request: normalized growth value, item COC1CC(OC2CCC3(C)C(CCC4C3CCC3(C)C(C5=CC(=O)OC5)C(OC(C)=O)CC43O)C2)OC(C)C1O (centres undefined)
0.984

# input compound: CC1=C2C(O)C(=O)OC3CC4C(C)(C)C(=O)C=C[C@]4(C)C(CC1)[C@]23C (some centres undefined) ; wanted: its normalized growth
1.03

Look at this compound and give its reported normalized growth. CC(C)c1cccc(O)c(=O)c1
0.0887

For CC1(C)Oc2ccc3ccc(=O)oc3c2CC1O (centres undefined) , what is its reported normalized growth?
0.91

Field request: normalized growth | item: CCCc1nc(C)c2c(=O)[nH]c(-c3cc(S(=O)(=O)N4CCN(CC)CC4)ccc3OCC)nn12
0.964
